Molecular target: CDK2/Cyclin A2 (Homo sapiens)
Assay: Inhibition of human CDK2/Cyclin A2 using PKTPKKAKKL as substrate by PK/LDH spectrophotometric analysis
Format: protein-complex assay
result_type: IC50

In the examples that follow, each entry is paired with its recorded IC50.
NC(=O)c1sc(Nc2ccc(S(N)(=O)=O)cc2)nc1N | 4.8 µM
C=CCNc1nc(N)c(C(C)=O)s1 | > 100 µM
CC(=O)c1sc(Nc2ccccc2)nc1N | > 100 µM

Then this compound:
IN: Report IC50 for Nc1nc(Nc2ccccc2)sc1C(=O)c1cc(C(F)(F)F)cc(C(F)(F)F)c1 please.
OUT: > 100 µM

* * *

Biological target: CDK2/Cyclin A2 (Homo sapiens, UniProt P24941)
Experiment: Inhibition of human CDK2/Cyclin A2 using PKTPKKAKKL as substrate by PK/LDH spectrophotometric analysis
Format: protein-complex assay
result_type: IC50

Nc1nc(Nc2ccccc2)sc1C(=O)c1cccc(C(F)(F)F)c1 | > 100 µM

IN: GET /values?readout=IC50&item= C=CCNc1nc(N)c(C(=O)Nc2cc(C)no2)s1
OUT: > 100 µM

IN: Name the reported IC50 value associated with the compound NC(=O)c1sc(Nc2ccccc2)nc1N
OUT: > 100 µM

IN: Query (compound): C=CCNc1nc(N)c(C(=O)C(C)(C)C)s1 ; field requested: IC50
OUT: > 100 µM
